assay: AUC (0 to 24 hrs) in BALB-nu/nu mouse at 50 mg/kg, po by LC-MS/MS analysis; assay type: ADME, organism-based; parameters: time < 24 hr, dose 50 mg/kg, route oral; conditions: plasma
measure name: AUC(0-t) at 24 h

Cc1c(Cc2cccc(NS(N)(=O)=O)c2)c(=O)oc2cc(OC(=O)N(C)C)c(F)cc12 :: 61 µM·h

# evaluate next
Query: Entry "Cc1c(Cc2cccc([N-]S(N)(=O)=O)c2F)c(=O)oc2cc(OC(=O)N(C)C)ccc12.[Na+]" : reported AUC(0-t) at 24 h = ?
Response: 40 µM·h

====

Kindly state solubility for each of the entries shown.
test: Solubility of the compound in fasted state simulated intestinal fluid measured after overnight incubation by UV-HPLC analysis; type: ADME

The following compounds have reported results that may help.
CNS(=O)(=O)Nc1cccc(Cc2c(C)c3ccc(OC(=O)N(C)C)cc3oc2=O)c1 :: 32 µg/mL
CNS(=O)(=O)Nc1cccc(Cc2c(C)c3cc(C#N)c(OC(=O)N(C)C)cc3oc2=O)c1 :: 40 µg/mL
Cc1c(Cc2cccc(NS(N)(=O)=O)c2)c(=O)oc2cc(OC(=O)N(C)C)c(F)cc12 :: 114 µg/mL
C#Cc1cc2c(C)c(Cc3cccc(NS(=O)(=O)NC)c3)c(=O)oc2cc1OC(=O)N(C)C :: 21 µg/mL
CNS(=O)(=O)Nc1cccc(Cc2c(C)c3ccc(Oc4ncccn4)cc3oc2=O)c1 :: 29 µg/mL

# map each compound to its solubility
1. Cc1c(Cc2cccc(NS(N)(=O)=O)c2F)c(=O)oc2cc(OC(=O)N(C)C)ccc12
2. Cc1c(Cc2ccc(F)c(NS(N)(=O)=O)c2)c(=O)oc2cc(OC(=O)N(C)C)ccc12
3. CNS(=O)(=O)Nc1cccc(Cc2c(C)c3ccc(Oc4nccs4)cc3oc2=O)c1
4. CNS(=O)(=O)Nc1cccc(Cc2c(C)c3cc(F)c(OC(=O)N(C)C)cc3oc2=O)c1

Response:
1. 273 µg/mL
2. 37 µg/mL
3. 9 µg/mL
4. 55 µg/mL

====

system: Liver microsome; assay: Clearance in human liver microsomes at 5 uM by LC-MS/MS analysis; assay type: ADME
Kindly state CLH for each of the entries shown.
I'd appreciate it if you included the unit after the number.

The following compounds have reported results that may help.
Cc1c(Cc2cccc(NS(N)(=O)=O)c2)c(=O)oc2cc(OC(=O)N(C)C)c(F)cc12 :: 6 µL/min/mg
CNS(=O)(=O)Nc1cccc(Cc2c(C)c3cc(C)c(OC(=O)N(C)C)cc3oc2=O)c1 :: 17 µL/min/mg
CNS(=O)(=O)Nc1cccc(Cc2c(C)c3cc(I)c(OC(=O)N(C)C)cc3oc2=O)c1 :: 33 µL/min/mg
CNS(=O)(=O)Nc1cccc(Cc2c(C)c3cc(C#N)c(OC(=O)N(C)C)cc3oc2=O)c1 :: 15 µL/min/mg
CNS(=O)(=O)Nc1cccc(Cc2c(C)c3ccc(Oc4nccs4)cc3oc2=O)c1F :: 9 µL/min/mg
CNS(=O)(=O)Nc1ccc(F)c(Cc2c(C)c3ccc(OC(=O)N(C)C)cc3oc2=O)c1 :: 22 µL/min/mg
Cc1c(Cc2cc(NS(N)(=O)=O)ccc2F)c(=O)oc2cc(OC(=O)N(C)C)ccc12 :: 6 µL/min/mg
CNS(=O)(=O)Nc1cccc(Cc2c(C)c3ccc(OC(=O)N(C)C)cc3oc2=O)c1F :: 13 µL/min/mg
CNS(=O)(=O)Nc1cccc(Cc2c(C)c3ccc(OC(=O)N(C)C)cc3oc2=O)c1 :: 20 µL/min/mg
CNS(=O)(=O)Nc1cccc(Cc2c(C)c3ccc(Oc4ncccn4)cc3oc2=O)c1F :: 7 µL/min/mg

# map each compound to its CLH
1. CNS(=O)(=O)Nc1cccc(Cc2c(C)c3ccc(Oc4ncccn4)cc3oc2=O)c1
2. Cc1c(Cc2cccc(NS(N)(=O)=O)c2)c(=O)oc2cc(OC(=O)N(C)C)ccc12
3. CN(C)C(=O)Oc1ccc2c(CF)c(Cc3cccc(NS(N)(=O)=O)c3)c(=O)oc2c1

Response:
1. 20 µL/min/mg
2. 6 µL/min/mg
3. 7 µL/min/mg

# map each compound to its CLH
1. Cc1c(Cc2ccc(F)c(NS(N)(=O)=O)c2)c(=O)oc2cc(OC(=O)N(C)C)ccc12
2. CNS(=O)(=O)Nc1cccc(Cc2c(CF)c3ccc(OC(=O)N(C)C)cc3oc2=O)c1
3. Cc1c(Cc2cccc(NS(N)(=O)=O)c2F)c(=O)oc2cc(OC(=O)N(C)C)ccc12

Response:
1: 6 µL/min/mg; 2: 22 µL/min/mg; 3: 6 µL/min/mg

# map each compound to its CLH
1. CNS(=O)(=O)Nc1cccc(Cc2c(C)c3cc(F)c(OC(=O)N(C)C)cc3oc2=O)c1
2. CNS(=O)(=O)Nc1cccc(Cc2c(C)c3ccc(Oc4nccs4)cc3oc2=O)c1

Response:
1. 13 µL/min/mg
2. 24 µL/min/mg

====

molecular target: RAF proto-oncogene serine/threonine-protein kinase (Homo sapiens)
Sequence (P04049 whole entry): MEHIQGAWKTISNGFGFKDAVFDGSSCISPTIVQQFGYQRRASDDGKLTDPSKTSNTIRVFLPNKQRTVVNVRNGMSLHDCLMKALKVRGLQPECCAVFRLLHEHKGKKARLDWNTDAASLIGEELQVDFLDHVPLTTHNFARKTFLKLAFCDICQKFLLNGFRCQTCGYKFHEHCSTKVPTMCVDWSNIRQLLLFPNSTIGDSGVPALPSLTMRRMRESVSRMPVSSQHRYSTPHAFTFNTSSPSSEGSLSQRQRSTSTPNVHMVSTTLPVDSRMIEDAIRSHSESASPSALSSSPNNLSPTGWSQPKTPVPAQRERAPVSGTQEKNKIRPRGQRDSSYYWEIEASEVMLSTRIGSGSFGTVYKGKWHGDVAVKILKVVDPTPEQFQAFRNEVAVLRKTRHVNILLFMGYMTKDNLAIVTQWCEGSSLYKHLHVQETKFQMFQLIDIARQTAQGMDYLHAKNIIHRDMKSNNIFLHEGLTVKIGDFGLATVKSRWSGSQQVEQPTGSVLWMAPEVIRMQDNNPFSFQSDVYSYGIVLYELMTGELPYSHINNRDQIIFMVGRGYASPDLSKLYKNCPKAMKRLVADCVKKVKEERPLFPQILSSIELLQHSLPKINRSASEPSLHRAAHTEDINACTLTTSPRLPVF
measure name: pIC50
One number for each entry, as −log10 of the molar value.

Cc1c(Cc2cc(NS(N)(=O)=O)ccc2F)c(=O)oc2cc(OC(=O)N(C)C)ccc12 :: 6.08

# map each compound to its pIC50
1. Cc1c(Cc2cccc(NS(N)(=O)=O)c2)c(=O)oc2c(F)c(OC(=O)N(C)C)ccc12
2. Cc1c(Cc2ccc(F)c(NS(N)(=O)=O)c2)c(=O)oc2cc(OC(=O)N(C)C)ccc12
3. CNS(=O)(=O)Nc1cccc(Cc2c(C)c3cc(C)c(OC(=O)N(C)C)cc3oc2=O)c1
4. Cc1c(Cc2cccc(NS(N)(=O)=O)c2F)c(=O)oc2cc(OC(=O)N(C)C)ccc12

Response:
6.92
5.96
7.11
7.89

# map each compound to its pIC50
1. CNS(=O)(=O)Nc1cccc(Cc2c(C)c3ccc(Oc4nccs4)cc3oc2=O)c1F
2. CNS(=O)(=O)Nc1cccc(Cc2c(C)c3cc(C#N)c(OC(=O)N(C)C)cc3oc2=O)c1
3. CNS(=O)(=O)Nc1ccc(F)c(Cc2c(C)c3ccc(OC(=O)N(C)C)cc3oc2=O)c1
4. CNS(=O)(=O)Nc1cccc(Cc2c(CF)c3ccc(OC(=O)N(C)C)cc3oc2=O)c1

Response:
7.20
7.26
5.62
6.92

====

assay: Clearance in rat at 5 mg/kg, iv and 10 mg/kg, po by LC-MS/MS analysis; assay type: ADME, organism-based; settings: in vivo
measure name: clearance (mL/min/kg)
One number for each entry, in mL/min/kg.

Query: Entry "CNS(=O)(=O)[N-]c1cccc(Cc2c(C)c3ccc(Oc4ncccn4)cc3oc2=O)c1F.[Na+]" : reported clearance = ?
Response: 6.6

====

assay: AUC (0 to 24 hrs) in BALB-nu/nu mouse at 100 mg/kg, po by LC-MS/MS analysis; format: ADME, organism-based; set-up: time < 24 hr, dose 100 mg/kg, route oral; settings: plasma
Kindly state AUC(0-t) at 24 h for each of the entries shown.
Answers are plain numbers, in µM·h.

The following molecules have reported results that may help.
CNS(=O)(=O)Nc1cccc(Cc2c(C)c3cc(C)c(OC(=O)N(C)C)cc3oc2=O)c1 :: 18
CNS(=O)(=O)[N-]c1cccc(Cc2c(C)c3ccc(OC(=O)N(C)C)cc3oc2=O)c1.[Na+] :: 78
CNS(=O)(=O)Nc1cccc(Cc2c(CF)c3ccc(OC(=O)N(C)C)cc3oc2=O)c1 :: 86
CNS(=O)(=O)Nc1cccc(Cc2c(C)c3ccc(Oc4ncccn4)cc3oc2=O)c1 :: 223
Cc1c(Cc2cccc([N-]S(N)(=O)=O)c2)c(=O)oc2cc(OC(=O)N(C)C)ccc12.[Na+] :: 104

# map each molecule to its AUC(0-t) at 24 h
1. CNS(=O)(=O)Nc1cccc(Cc2c(C)c3cc(F)c(OC(=O)N(C)C)cc3oc2=O)c1
2. CNS(=O)(=O)[N-]c1cccc(Cc2c(C)c3ccc(Oc4nccs4)cc3oc2=O)c1F.[Na+]
3. CN(C)C(=O)Oc1ccc2c(CF)c(Cc3cccc(NS(N)(=O)=O)c3)c(=O)oc2c1
4. CNS(=O)(=O)[N-]c1cccc(Cc2c(C)c3ccc(Oc4nccs4)cc3oc2=O)c1.[Na+]
5. CNS(=O)(=O)Nc1cccc(Cc2c(C)c3cc(C#N)c(OC(=O)N(C)C)cc3oc2=O)c1
6. CNS(=O)(=O)Nc1cccc(Cc2c(C)c3cc(I)c(OC(=O)N(C)C)cc3oc2=O)c1
7. CNS(=O)(=O)Nc1cccc(Cc2c(C)c3ccc(Oc4ncccn4)cc3oc2=O)c1F
8. CNS(=O)(=O)[N-]c1cccc(Cc2c(C)c3ccc(OC(=O)N(C)C)cc3oc2=O)c1F.[Na+]

Response:
1. 99
2. 366
3. 84
4. 190
5. 39
6. 16
7. 425
8. 70

# map each molecule to its AUC(0-t) at 24 h
1. Cc1c(Cc2cc(NS(N)(=O)=O)ccc2F)c(=O)oc2cc(OC(=O)N(C)C)ccc12
2. CNS(=O)(=O)Nc1ccc(F)c(Cc2c(C)c3ccc(OC(=O)N(C)C)cc3oc2=O)c1

Response:
1. 176
2. 75
